- measured-on: SARS-CoV-2 NSP3 Mac1 (Severe acute respiratory syndrome coronavirus 2, UniProt P0DTD1)
- Type: binding
- Parameters: contains a conserved macrodomain enzyme (Mac1)
- condition-label: maximal thermal upshift vs DMSO control
Assign t to entries whose DSF max dTma meets or exceeds 0.3 °C; assign f to the rest.

Completed entries (count: 6):
INSERT INTO assay_data (compound, class_name) VALUES
  ('COc1ccc(Cl)cc1Cn1cnc2c(N)ncnc21 [Z0953]', 'f'),
  ('COC(=O)Nc1ccc(C(=O)NC2c3ccccc3CC2C(=O)O)cc1 (stereo not shown) [Z8531]', 't'),
  ('CN(Cc1ncc(Cl)n1C)c1ncnc(N)n1 [Z3291]', 't'),
  ('CCc1c[nH]c2ncnc(N3CCCC(S(C)(=O)=O)C3)c12 (stereo not shown) [Z1027]', 't'),
  ('Nc1ncnc(SCCc2cccc(Cl)c2Cl)n1 [Z1086]', 'f'),
  ('O=C1CSc2cc(C(=O)OC3c4ccccc4CC3F)ccc2N1 (stereo not shown) [Z8554]', 'f');

Q: Given the entry Cc1ccc(-c2noc(C3CC(=O)N(c4cn[nH]c4)C3)n2)cc1 (stereo not shown) [Z6019] , answer whether its DSF max dTma meets or surpasses 0.3 °C.
Result: f
